test system: HIV-1JR-CSF; experiment: CD4-dependent HIV transmission inhibition assay (cell-associated virus, GHOST cells); assay type: cell-based; conditions: Human immunodeficiency virus 1, Assay Virus HIV-1JR-CSF
recordedMetric: IC50

Per the records, this compound ( c1cc(CN2CCCNCCNCCCNCC2)ccc1CN1CCCNCCNCCCNCC1 [AMD 3100] ) has IC50 equal to > 10 µM

----------
system: GHOST cells
recordedMetric: CC50

Per the records, this compound ( Cc1ccc(-c2ccc3c(c2)C=C(C(=O)Nc2ccc(C[N+](C)(C)C4CCOCC4)cc2)CCC3)cc1 ) has CC50 equal to > 10 nM

----------
test: in vitro; settings: human
recordedMetric: CC50 at 4 h

Per the records, this compound ( c1cc(CN2CCCNCCNCCCNCC2)ccc1CN1CCCNCCNCCCNCC1 ) has CC50 at 4 h equal to > 10 µM
